Tested on: MCF-7 cells
test-name: MTT cytotoxicity assay, MCF-7
Format: cell-based, human
assay-setup: Homo sapiens, MCF7; breast cancer MCF-7, MTT, 72 h
Documented pIC50 across a set of compounds
pIC50 is a log-scale quantity: -log10 of the concentration expressed in molar.

In [3]: df
Out[3]:
                                   compound  readout_label  result_value
0  O=[N+]([O-])c1ccc(-n2cc(CSc3nnc(-c4ccccc4)o3)nn2)cc1 [Compound 11]          pIC50          4.01
1  Cc1ccccc1-n1cc(CSc2nnc(-c3ccccc3)o2)nn1 [Compound 7]          pIC50          4.51
2  Clc1ccc(-n2cc(CSc3nnc(-c4ccccc4)o3)nn2)cc1 [Compound 9]          pIC50          4.46

Name the recorded pIC50 of the item Cc1ccc(-n2cc(CSc3nnc(-c4ccccc4)o3)nn2)cc1 [Compound 6] in your answer.
4.10

Name the recorded pIC50 of the item c1ccc(-c2nnc(SCc3cn(-c4ccccc4)nn3)o2)cc1 [Compound 12] in your answer.
5.24

Cited source: paper PMC7696185
